# Lookup of reported pKi keyed by entry
target: rat orexin 1 receptor (Rattus norvegicus, UniProt P56718); experiment: Rat orexin 1 receptor radioligand binding; conditions: HEK293 cells stably expressing rat orexin 1 receptor; apparent Ki; read-out: rOX1 Ki
Remember, pKi is on a log scale: it is -log10 of the molar concentration.

[[record]]
chemicalsmiles = "Cc1ccc(C(=O)N2CCC[C@@H](Nc3ncc(C(F)(F)F)cn3)[C@@H]2C)c(-n2nccn2)c1"
datavalue = 8.00


Could you now look at the following compound, please?
Briefly, pKi measured for `Cc1ccc(-c2ncccn2)c(C(=O)N2CCC[C@@H](Nc3nc4ccccc4o3)[C@@H]2C)n1` : 7.85
